Target: Cytochrome P450 2C19 (Homo sapiens) (UniProt P33261)
Sequence (P33261 whole entry, looked up): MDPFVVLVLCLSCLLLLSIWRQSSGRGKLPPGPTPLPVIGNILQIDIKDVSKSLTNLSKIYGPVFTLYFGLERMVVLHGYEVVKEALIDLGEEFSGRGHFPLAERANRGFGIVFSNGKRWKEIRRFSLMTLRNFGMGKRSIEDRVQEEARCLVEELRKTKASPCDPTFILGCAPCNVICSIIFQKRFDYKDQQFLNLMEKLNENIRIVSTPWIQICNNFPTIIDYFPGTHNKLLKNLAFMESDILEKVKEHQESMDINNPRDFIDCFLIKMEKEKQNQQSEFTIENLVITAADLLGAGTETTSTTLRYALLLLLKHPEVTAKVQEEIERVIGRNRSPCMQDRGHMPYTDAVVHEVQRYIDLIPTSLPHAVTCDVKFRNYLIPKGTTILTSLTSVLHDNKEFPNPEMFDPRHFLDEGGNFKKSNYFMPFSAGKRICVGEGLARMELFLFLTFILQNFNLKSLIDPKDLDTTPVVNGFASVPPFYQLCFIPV
Assay: Cytochrome panel assay with activity outcomes
Details: recombinant CYP, pro-luciferin dealkylation, luminescence, p450-cyp2c19; series mostly up to 57.1 µM
In all, about 16,000 compounds went through this assay and about 5,800 (36%) were called active. Not shown: some 23% with an inconclusive outcome. This is one part of the list.
Readout Label: AC50

Observe how each entry below is paired with its result.
*Q* Could you please provide reported AC50 for `O=C(NCc1ccco1)c1cc(C(=O)C2CC2)c[nH]1` ? Thanks!
*A* 25.1 µM (active)

*Q* Report AC50, nothing else, for this compound: COCCCNC(=O)C1CC(=O)N(CCc2ccc(OC)c(OC)c2)C1 (centres undefined)
*A* inactive

*Q* Identify measured AC50 associated with `C[C@@H](C(=O)Nc1ccc2ccccc2c1)[C@H]1C[C@]1(C)[C@H](NC(=O)Oc1ccc(F)cc1)c1ccccc1`
*A* inactive

*Q* Give the measured AC50 for COc1ccc(CCn2c3c(c(=O)[nH]c2=O)C(NC(=O)c2cccs2)(C(F)(F)F)C(=O)N3)cc1OC (centres undefined)
*A* inactive

*Q* Return value of AC50 for input `C[C@@H](C(=O)Cc1ccc2ccccc2c1)[C@@H]1C[C@@]1(C)[C@@H](NP(=O)(c1ccccc1)c1ccccc1)c1ccccc1` , no commentary.
*A* inactive

*Q* Provide only the value of recorded AC50 for COC(=O)c1ccc(C2C(Oc3ccccc3)C(=O)N2CCc2ccc(OC)c(OC)c2)cc1 (centres undefined)
*A* 1.58 µM (active)

***
*Q* Complete the entry with AC50 for `C[C@@H](C(=O)Nc1ccc2ccccc2c1)[C@H]1C[C@]1(C)[C@H](NP(=O)(c1ccccc1)c1ccccc1)c1ccccc1`
*A* 10 µM (active)

*Q* // fetch AC50 given entry COc1ccc(CCN2C(=O)C(Oc3ccccc3C)C2c2ccc3c(c2)OCO3)cc1OC (centres undefined)
*A* 0.501 µM (active)

*Q* Provide measured AC50 value, entry: COc1ccc(CCN2C(=O)C(O)=C(C(=O)c3ccco3)C2c2cccs2)cc1OC (centres undefined)
*A* inactive

* * *

Target: Cytochrome P450 2C19 (Homo sapiens)
Experiment: Cytochrome panel assay with activity outcomes
Conditions: recombinant CYP, pro-luciferin dealkylation, luminescence, p450-cyp2c19; series mostly up to 57.1 µM
Hit rate of the full screen: of about 16,000 compounds, about 5,800 (36%) were called active. Not shown: some 23% with an inconclusive outcome. The call rests on the fitted dose curve; in most records, active means well fitted curve in the direction sought with a large enough effect; inconclusive means small, poorly fitted or top-dose-only effect, or effect the other way; inactive means no such curve, though single readings can be large or run the other way. Some of the results follow.
One label from this list, please: y = active, n = inactive

*Q* How did this test come out for `Fc1ccc2c(c1)C(c1ccncc1)=NNC(c1ccc(Cl)cc1)=N2` ?
*A* y

*Q* Assay outcome for `CN(CCc1ccc(Cl)c(Cl)c1)C[C@@H](O)COc1ccc(NS(C)(=O)=O)cc1` : what was it?
*A* y

*Q* Field: outcome | Entry: `Cc1cc(=O)oc(C)c1C(=O)NCc1cccnc1`
*A* n

*Q* Please state the recorded outcome for this compound: `O=C(O)c1cc2cc(Cc3cccnc3)ccc2o1`
*A* n

*Q* // outcome(item) with item = `CCOc1ccc(OCc2ccc(C(=O)NCc3cccnc3)o2)cc1`
*A* y

*Q* Please indicate how the test categorized `CCOc1ccc(OCc2ccc(C(=O)N3CCc4ccccc4C3)o2)cc1` .
*A* y

* * *

Molecular target: Cytochrome P450 2C19 (Homo sapiens) (UniProt P33261)
Experiment: Cytochrome panel assay with activity outcomes
Details: recombinant CYP, pro-luciferin dealkylation, luminescence, p450-cyp2c19; series mostly up to 57.1 µM
The campaign covered roughly 16,000 compounds. About 5,800 (36%) were called active. Not shown: some 23% with an inconclusive outcome. The call rests on the fitted dose curve; in most records, active means well fitted curve in the direction sought with a large enough effect; inconclusive means small, poorly fitted or top-dose-only effect, or effect the other way; inactive means no such curve, though single readings can be large or run the other way. The list shows a part of the results.
// allowed return values: active, inactive

*Q* Which outcome was entered for the compound `CC(N)=NCCCC[C@H](N)C(=O)O` in this test?
*A* inactive

*Q* Could you please tell me the result logged for `O=C(Nc1cc2c(oc1=O)CCCC2=O)c1ccc(Cl)cc1` in this assay?
*A* active

*Q* Short answer needed: outcome of this test for `c1ccc(CNc2ccnc(-c3ccc4c(c3)OCO4)n2)cc1` ?
*A* active

*Q* Name the outcome recorded for `CCOc1ccc(-c2nnc(-c3ccncc3)o2)cc1` in the assay.
*A* active

*Q* Write down the call the test reported for this compound. Item: `c1csc(CNc2ccnc(-c3ccc4c(c3)OCO4)n2)c1`
*A* active

*Q* Entry `c1cncc(CNc2ccnc(-c3ccc4c(c3)OCO4)n2)c1` : call = ?
*A* active

*Q* What was the test verdict on `COc1cc(NC(=O)c2ccccc2Cl)ccc1NC(=O)c1ccco1` ?
*A* active

*Q* Outcome? `C[C@@H]1O[C@H]2C3=C(C(=O)[C@H]4O[C@@H]4[C@H]3O)[C@@H]1[C@@H]1[C@@H](C)OC=C3[C@H](O)[C@H]4O[C@@H]4/C(=N\OCc4ccccc4)[C@]312`
*A* active

*Q* Would you mind telling me which call this test gave `CC(C)Oc1ccc(C(=O)Nc2ccc(NC(=O)c3ccco3)c(Cl)c2)cc1` ?
*A* active

*Q* Per the records of this test, what outcome belongs to `COc1ccccc1CNCC(O)(c1ccc(Cl)cc1)c1ccc(Cl)cc1` ?
*A* active

*Q* Kindly provide the recorded test outcome for the following compound: `Nc1ncnc2c1nc(Br)n2[C@H]1O[C@H]2COP(=O)(O)O[C@H]2[C@@H]1O`
*A* inactive

*Q* Record lookup: outcome of this test for CCCS(=O)(=O)N1CCCC(C(=O)NCCN2CCOCC2)C1 (centres undefined) ?
*A* inactive

*Q* Status in this test for CCCS(=O)(=O)N1CCN(CC2CC=CCC2)CC1 (centres undefined) ?
*A* active

*Q* Record request — test call for `CCOc1nc(NCCN2CCOCC2)nc(Nc2ccc(C)cc2)n1`
*A* inactive

*Q* Which result was noted for this compound in the test: `Cc1ccc(S(=O)(=O)c2c(C)nn(C(C)(C)C)c2OC(=O)c2cccs2)cc1`
*A* active

*Q* Dear colleague, could you share the recorded outcome for `c1ccc(-c2nc3ccccc3o2)nc1` when you have a moment?
*A* active

*Q* Please share the test call associated with `COc1ccc(-c2nnc(-c3cccnc3)o2)cc1` .
*A* active

*Q* Query: recorded result category for `COC(=O)c1c(NC(=O)c2ccco2)sc2c1CCC2` in this test
*A* active

*Q* Please let me know the test result on file for `c1ccc(-c2ccccn2)nc1` .
*A* inactive

*Q* Recorded test call requested for `CCOC(=O)C1CCN(Cc2cnc(Oc3ccc(OC)cc3)s2)CC1`
*A* active

*Q* Check the results log: what was the call for `N#Cc1cccc(NC(=O)N2CC[C@@]3(CCCNC3)C2)c1` ?
*A* inactive

*Q* How was `Cc1nn(Cc2c(Cl)cccc2Cl)c(C)c1NC(=O)c1cnn2c(C(F)F)cc(-c3ccccc3)nc12` classified in this test?
*A* active

*Q* State the result this test recorded for `Cc1ccc(Oc2ncc(CN3CCOCC3)s2)cc1` .
*A* active

*Q* Query: recorded result category for `CCSc1nnc(NC(=O)CSc2nc3c(cc2C#N)CCCC3)s1` in this test
*A* active

* * *

Target: Cytochrome P450 2C19 (Homo sapiens) (UniProt P33261)
Assay: Cytochrome panel assay with activity outcomes
Details: recombinant CYP, pro-luciferin dealkylation, luminescence, p450-cyp2c19; series mostly up to 57.1 µM
About 5,800 (36%) of roughly 16,000 compounds were called active. Roughly 23% stayed inconclusive and do not appear here. The call rests on the fitted dose curve; in most records, active means well fitted curve in the direction sought with a large enough effect; inconclusive means small, poorly fitted or top-dose-only effect, or effect the other way; inactive means no such curve, though single readings can be large or run the other way. Some of the results follow.
// one of active, inactive, no free text

*Q* // param item: `CN1CCN(c2ccnc(-c3ccc(N(C)C)cc3)n2)CC1` ; yields the recorded call
*A* inactive

*Q* Per the records of this test, what outcome belongs to `CN[C@@H]1[C@H](O[C@@H]2O[C@H](CO)[C@@H](N)[C@H](O)[C@@H]2O)O[C@H]2C[C@@H](N)[C@@H](O[C@H]3[C@@H](O)[C@H](O)[C@H](N)C[C@@H]3N)O[C@H]2[C@H]1O` ?
*A* inactive

*Q* GET /call?item= `Clc1ccc(Sc2ccc(/C=N/n3cnnc3)o2)cc1` returns the recorded outcome of this test.
*A* active

*Q* I would be grateful if you could indicate the recorded call for `Fc1ccc(Nc2ccnc(-c3ccc4c(c3)OCO4)n2)cc1` .
*A* active

*Q* Hi team, can someone confirm the assay call for `CCOC(=O)n1ccn(C)c1=S` ?
*A* inactive

*Q* How was `CN=C1S/C(=C\c2ccc(Sc3ccc(Cl)cc3)o2)C(=O)N1C` classified in this test?
*A* inactive

*Q* In this assay, the call recorded for `Cc1cc(-c2cc(-c3ccc(Cl)cc3)nc(N)c2C#N)co1` was what?
*A* active

*Q* How did this test come out for `CCCCC/C=C\C[C@H](O)/C=C\c1cccc(C[C@H](O)CCCCO)n1` ?
*A* inactive

*Q* Short answer needed: outcome of this test for `CN(C)c1ccc(-c2nccc(Nc3ccc(F)cc3)n2)cc1` ?
*A* active

*Q* # lookup: test call for `Cc1cnc(CNc2cc(-c3ccc(C(=O)N(C)C)cc3)ncn2)cn1`
*A* inactive

*Q* Write down the call the test reported for this compound. Item: `O=C(c1cccc(C(F)(F)F)c1)N1CCC(O)(CS(=O)(=O)Cc2ccccc2)CC1`
*A* active
